- target-of-assay: T1, human MSLN-R3 protein (human, UniProt Q13421 487-598)
- T1 construct: also called hMSLN-R3
- T1 sequence (Q13421 495-606, form in doubt): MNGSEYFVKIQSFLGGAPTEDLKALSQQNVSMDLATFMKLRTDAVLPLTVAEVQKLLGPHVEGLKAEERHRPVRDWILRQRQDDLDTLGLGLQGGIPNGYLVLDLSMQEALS
- experiment: ELISA on coated antigen, antibody 10 nM
parameter: OD450 (OD450)
Answers are plain numbers, in OD450.

- binder: "F7.33.24-H9 (scFv, not shown: small tags and cut ends, also called S009-F7.33.24 humanized antibody VH2 + VL3) scFv: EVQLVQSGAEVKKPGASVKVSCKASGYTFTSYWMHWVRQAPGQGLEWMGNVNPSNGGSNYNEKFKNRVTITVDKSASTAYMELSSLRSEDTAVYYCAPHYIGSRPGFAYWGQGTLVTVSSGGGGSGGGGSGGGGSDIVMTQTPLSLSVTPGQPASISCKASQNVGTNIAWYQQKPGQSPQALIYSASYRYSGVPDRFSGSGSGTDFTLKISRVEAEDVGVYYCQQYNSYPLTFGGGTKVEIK"
  OD450 / OD450: 2.08
- binder: "Tab110 (scFv, not shown: small tags and cut ends, also called YP218 VH-(G4S)3-VL-his antibody; positive control) scFv: QQQLEESGGGLVKPEGSLTLTCKASGFDLGFYFYACWVRQAPGKGLEWIACIYTAGSGSTYYASWAKGRFTISKASSTTVTLQMTSLAAADTATYFCARSTANTRSTYYLNLWGPGTLVTVSSGGGGSGGGGSGGGGSDVVMTQTPASVSEPVGGTVTIKCQASQRISSYLSWYQQKPGQRPKLLIFGASTLASGVPSRFKGSGSGTEYTLTISDLECADAATYYCQSYAYFDSNNWHAFGGGTEVVV"
  OD450 / OD450: 0.78
- binder: "F7.33.24-H12 (scFv, not shown: small tags and cut ends, also called S009-F7.33.24 humanized antibody VH2a + VL3) scFv: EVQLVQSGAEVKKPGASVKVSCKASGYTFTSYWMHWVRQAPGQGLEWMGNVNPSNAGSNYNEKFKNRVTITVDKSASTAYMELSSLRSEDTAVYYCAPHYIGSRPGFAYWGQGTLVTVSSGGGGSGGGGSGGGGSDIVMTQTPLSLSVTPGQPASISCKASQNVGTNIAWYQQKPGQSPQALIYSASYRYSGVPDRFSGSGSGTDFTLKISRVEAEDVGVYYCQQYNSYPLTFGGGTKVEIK"
  OD450 / OD450: 1.95
- binder: "F7.33.24-H4 (scFv, not shown: small tags and cut ends, also called S009-F7.33.24 humanized antibody VH1a + VL1) scFv: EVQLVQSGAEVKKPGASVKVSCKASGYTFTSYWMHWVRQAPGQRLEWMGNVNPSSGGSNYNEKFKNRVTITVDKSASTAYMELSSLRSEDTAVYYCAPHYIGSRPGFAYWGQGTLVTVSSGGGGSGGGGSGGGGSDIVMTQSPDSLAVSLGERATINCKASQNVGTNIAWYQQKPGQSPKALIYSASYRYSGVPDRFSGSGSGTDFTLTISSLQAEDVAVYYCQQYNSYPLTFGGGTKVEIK"
  OD450 / OD450: 1.64
- binder: "F7.33.24-H11 (scFv, not shown: small tags and cut ends, also called S009-F7.33.24 humanized antibody VH2a + VL2) scFv: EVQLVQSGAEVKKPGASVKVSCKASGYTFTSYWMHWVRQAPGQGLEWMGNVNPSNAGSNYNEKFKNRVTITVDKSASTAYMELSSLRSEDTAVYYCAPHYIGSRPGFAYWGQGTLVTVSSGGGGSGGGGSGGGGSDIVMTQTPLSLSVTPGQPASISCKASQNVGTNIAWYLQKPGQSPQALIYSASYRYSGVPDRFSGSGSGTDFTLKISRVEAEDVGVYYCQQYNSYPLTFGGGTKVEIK"
  OD450 / OD450: 1.94

Batch lookup, OD450 per entry.
1. F7.33.24 (scFv, not shown: small tags and cut ends, also called S009-F7.33.24 (parental variable regions, in the humanized-antibody ELISA)) scFv: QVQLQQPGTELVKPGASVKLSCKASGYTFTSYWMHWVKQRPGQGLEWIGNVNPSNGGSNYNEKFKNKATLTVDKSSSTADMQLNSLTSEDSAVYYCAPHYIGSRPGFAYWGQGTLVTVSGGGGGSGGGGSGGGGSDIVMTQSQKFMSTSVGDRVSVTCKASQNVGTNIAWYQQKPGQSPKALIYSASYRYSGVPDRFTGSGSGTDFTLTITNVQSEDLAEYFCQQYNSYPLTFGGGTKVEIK
2. F7.33.24-H5 (scFv, not shown: small tags and cut ends, also called S009-F7.33.24 humanized antibody VH1a + VL2) scFv: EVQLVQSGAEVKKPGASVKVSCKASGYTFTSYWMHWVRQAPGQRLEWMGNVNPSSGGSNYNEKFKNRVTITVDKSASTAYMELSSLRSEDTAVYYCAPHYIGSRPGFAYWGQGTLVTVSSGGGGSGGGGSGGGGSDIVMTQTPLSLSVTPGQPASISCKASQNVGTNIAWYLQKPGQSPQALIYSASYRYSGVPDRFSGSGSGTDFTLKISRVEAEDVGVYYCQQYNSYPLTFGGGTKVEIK
3. F7.33.24-H3 (scFv, not shown: small tags and cut ends, also called S009-F7.33.24 humanized antibody VH1 + VL3) scFv: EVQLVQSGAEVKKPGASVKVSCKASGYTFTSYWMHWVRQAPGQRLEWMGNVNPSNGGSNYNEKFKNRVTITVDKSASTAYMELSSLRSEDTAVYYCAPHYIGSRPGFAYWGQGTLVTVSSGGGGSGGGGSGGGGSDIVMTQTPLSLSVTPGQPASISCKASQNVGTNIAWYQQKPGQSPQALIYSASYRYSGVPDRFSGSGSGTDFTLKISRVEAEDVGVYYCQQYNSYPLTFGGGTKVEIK
4. F7.33.24-H6 (scFv, not shown: small tags and cut ends, also called S009-F7.33.24 humanized antibody VH1a + VL3) scFv: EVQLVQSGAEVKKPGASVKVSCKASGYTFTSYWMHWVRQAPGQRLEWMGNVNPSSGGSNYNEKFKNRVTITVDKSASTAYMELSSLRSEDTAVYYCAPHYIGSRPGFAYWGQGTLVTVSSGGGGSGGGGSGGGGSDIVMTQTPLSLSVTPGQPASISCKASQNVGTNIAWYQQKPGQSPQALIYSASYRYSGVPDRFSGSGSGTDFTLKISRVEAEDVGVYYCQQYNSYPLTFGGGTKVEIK
5. F7.33.24-H8 (scFv, not shown: small tags and cut ends, also called S009-F7.33.24 humanized antibody VH2 + VL2) scFv: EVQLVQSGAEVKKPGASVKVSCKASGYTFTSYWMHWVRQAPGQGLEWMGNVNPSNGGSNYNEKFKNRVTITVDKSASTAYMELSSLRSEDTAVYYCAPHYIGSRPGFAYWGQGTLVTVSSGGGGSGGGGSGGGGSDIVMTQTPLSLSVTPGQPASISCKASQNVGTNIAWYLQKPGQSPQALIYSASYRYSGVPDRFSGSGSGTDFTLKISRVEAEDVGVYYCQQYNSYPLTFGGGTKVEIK

1.78
1.53
1.86
1.74
1.92
